Target: Corticotropin-releasing factor receptor 2/Corticotropin-releasing factor-binding protein (Homo sapiens, UniProt P24387+Q13324)
Sequence (Q13324 whole entry): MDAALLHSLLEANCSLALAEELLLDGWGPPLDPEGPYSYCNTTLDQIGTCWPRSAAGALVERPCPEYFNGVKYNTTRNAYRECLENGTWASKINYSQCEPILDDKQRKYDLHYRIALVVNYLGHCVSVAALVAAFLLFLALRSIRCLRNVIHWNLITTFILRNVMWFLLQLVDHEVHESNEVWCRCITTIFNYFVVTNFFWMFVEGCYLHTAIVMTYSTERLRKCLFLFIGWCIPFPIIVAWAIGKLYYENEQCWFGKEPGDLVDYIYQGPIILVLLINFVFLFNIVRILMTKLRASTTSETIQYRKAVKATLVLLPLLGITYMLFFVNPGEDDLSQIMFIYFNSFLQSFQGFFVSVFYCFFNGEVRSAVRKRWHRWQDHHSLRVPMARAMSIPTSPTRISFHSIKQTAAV
Sequence (P24387 whole entry): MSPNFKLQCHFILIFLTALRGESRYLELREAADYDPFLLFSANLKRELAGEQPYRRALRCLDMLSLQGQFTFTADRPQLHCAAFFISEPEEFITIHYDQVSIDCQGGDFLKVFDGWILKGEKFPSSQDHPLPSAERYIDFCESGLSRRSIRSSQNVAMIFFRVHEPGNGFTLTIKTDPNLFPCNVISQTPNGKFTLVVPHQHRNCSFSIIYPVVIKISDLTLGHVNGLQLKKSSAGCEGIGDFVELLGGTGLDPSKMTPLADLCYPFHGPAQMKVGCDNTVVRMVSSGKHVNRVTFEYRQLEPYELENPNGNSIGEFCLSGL
Experiment: Dose Response confirmation of uHTS hits for small molecule antagonists of the CRF-binding protein and CRF-R2 receptor complex.
Format: functional
Conditions: read-out: IC50_Mean
The source made the active and inactive calls. Rule as the data show it: actives have a measured IC50 and inactives only a lower limit.
Outcomes: TRUE (active), FALSE (inactive)

Compound | Cat
CCCOC(=O)c1ccc(Oc2c[nH]nc2-c2ccc(OCC)cc2O)cc1 | FALSE
COc1ccccc1S(=O)(=O)Cc1ccc(C(=O)NCc2ccccc2)o1 | FALSE
CCc1ccc(Nc2nnc(SC(C)C(=O)NC3CC3)s2)cc1 (stereo not drawn) | FALSE
O=C(CN1c2cccc3cccc(c23)S1(=O)=O)NC1CCCCC1 | FALSE
COc1ccc(CNC(=O)[C@H](C)NC(=O)C2CCN(S(=O)(=O)c3ccc(F)cc3)CC2)cc1 | FALSE
CSc1ccc(S(=O)(=O)NCC(=O)OCC(=O)N(Cc2ccccc2)C(C)C)cc1[N+](=O)[O-] | FALSE
C/C(=N\NC(=O)c1cc(Cl)ccc1O)c1ccc(Br)s1 | TRUE
Cc1cccnc1NC(=O)C(C)Oc1ccccc1 (stereo not drawn) | FALSE
CC(/C=N/Nc1nc(C)cc(C)n1)=C\c1ccc(C(C)C)cc1 | FALSE
Cn1c(SCC(=O)N2CCCc3ccccc32)nc2cccnc21 | FALSE
COc1cccc(C2(c3cccc(OC)c3)CC2C(=O)Nc2ccccc2Cl)c1 (stereo not drawn) | TRUE
Cc1ccccc1Cn1nc(C)c(NC(=O)c2cc(-c3cccs3)on2)c1C | TRUE
Cc1occc1C(=O)NC(C)C12CC3CC(CC(C3)C1)C2 (stereo not drawn) | FALSE

Data origin, for the record: ChEMBL document CHEMBL1201862
